assay: yeast display, Sf9 membrane polyspecificity reagent, FACS + sequencing; frameworks hold sequencing errors
Readout type: polyreactivity (PSR sort gate)

Solved entries (count: 5):
Entry sequence	Result
QLQLQESGGGLVQAGGSLRLSCAASGNISVTGFMGWYRQAPGKERELVASIGIGGTTYYADSVKGRFSISRDNAKNTVYLQMNSLKPEDTAVYYCAARYLYYAYSYWGQGTQVTVSS	low polyreactivity
QVQLVESGGGLVQAGGSLRLSCAASGLTFPSNAMGWYRQAPGKERELVAAISKRGGRTYYADSVKGRFTISRDNAKNTVYLQINSLKPEDTAVYYCAAVPWYVSHDFDYWGQGTQVTVSS	high polyreactivity
QVQLVESGGGLVQAGGSLRLSCAASGFTFVSYAMGWYRQAPGKERELVAAISRSGGTTYYADSVKGRFTISRDNAKNTGYFQMNSLKPEDTAVYYCAADFYVFYTRYYYWGQGTQVTVSS	low polyreactivity
QVQLVESGGGVVQAGGSLRLSCAASGSTFYLTVLGWYRKAPGKERELVAASSSSGGSTYYADSVKGRFTISRDNAKNTVYLQMNSLKPEDTAVYYCNKVSAFPHYSGYAYWGQGTQVPVSS	low polyreactivity
QVQLVESGGGLVQAGGSLRLSCAASGLTFNSYDMGWYRQAPGKERELVAAISSGGVLPNYADSVKGRFTISRDNAKNTVYLQMNSLKPEDTAVYYCAAGYEYDVSDFDYWGQGTQVTVSS	low polyreactivity

Q: So what's the measured polyreactivity (PSR sort gate) for this one? "QVQIVESAAGLVQAGGSLRLSCAASGLTFTTYSKGWYRQAPGKERELVAAISRRGSRTYYADSVKGRFTISRDNSKNTVYLQMNSLKPEDTAVYYCNALTGSFKTYSFDYWGQGTQVTVSS"
Result: high polyreactivity

Q: So what's the measured polyreactivity (PSR sort gate) for this one? "QVQLVESGGGLVQAGGSLRLSCAASGLTFNVNPIVWYRQAPGKEREMVARITTSGGSTSYADSVKGRFTISRDNAKNTVYLQMNSLKPEDSAVYYCAADRARYYSEYDYWGQGTQVTVSS"
Result: low polyreactivity
